Ref: patent US8415336B2

Where a name gives a salt, the structure may show the parent alone.
measured.quantity: melting point (°C)

// query Fill in: melting point of O=C(c1c(Cc2c(F)cccc2Cl)c(-c2ccccc2)c2ccccn12)N1CCNCC1 (as salt: hydrochloride) [Example 3] is ___
// result 304

// query What would you report for CNC(=O)c1ccc2c(-c3ccccc3)c(Cc3cccc(F)c3C)c(C(=O)N3CCNCC3)n2c1 (as salt: hydrochloride) [Example 13] ?
// result 273

====

Where a name gives a salt, the structure may show the parent alone.
Here, each record is paired with measured melting point data.

See these solved cases before continuing.
// query Fill in: melting point of COC(=O)CCNC(=O)C[C@H]1CN(C(=O)c2c(Cc3cccc(F)c3C)c(-c3ccccc3)c3ccccn23)CCN1 (as salt: hydrochloride) [Example 30] is ___
// result 112 to 113 °C

// query What would you report for Cc1c(F)cccc1Cc1c(-c2ccccc2)c2ccccn2c1C(=O)N1CCNCC1 (as salt: hydrochloride) [Example 1] ?
// result 263 °C

New cases:
// query Fill in: melting point of Cc1c(F)cccc1Cc1c(-c2ccccc2)c2cc(O)cnn2c1C(=O)N1CCNCC1 (as salt: hydrochloride) [Example 10] is ___
// result 206 to 208 °C
